molecular target: Bromodomain-containing protein 4 (Homo sapiens); settings: Compound concentration 20.0 uM, Protein concentration 2.0 uM, Result type QC Liability
Task for the reader: assign each of the following compounds its reported ΔTm.
Entry rule: numbers only, all in °C.

## Task Bench note: what ΔTm did N=C(N)NCCC[C@H](NC(=O)C(c1ccccc1)c1ccccc1)C(=O)NCc1ccc(CNC(N)=O)cc1 show?
## Result 0.06

## Task Bench note: what ΔTm did Cc1sc(C(=O)c2cncnc2N[C@@H]2C[C@H](COS(N)(=O)=O)[C@@H](O)C2)cc1[C@@H]1NCCc2ccc(Cl)cc21 show?
## Result -4.45

## Task Bench note: what ΔTm did Cc1nsc(Nc2cnc(C(F)(F)F)cn2)c1C(=O)Nc1ccc(O[C@H]2CCCN(CC(F)(F)F)C2)nc1 show?
## Result 1.66

## Task Bench note: what ΔTm did CCS(=O)(=O)Nc1cccc(Oc2cc(F)cc(Nc3ccc(I)cc3F)c2NS(=O)(=O)C2CC2)c1 show?
## Result -2.86

## Task Bench note: what ΔTm did CC1(C)Oc2ncnc(N)c2N=C1c1ccc([C@H]2CC[C@H](CC(=O)O)CC2)cc1 show?
## Result -1.69

## Task Bench note: what ΔTm did CCCCCNC(=O)N1CCC(CN(Cc2ccc(Cl)cc2)Cc2ccc([N+](=O)[O-])s2)C1 (stereo not drawn) show?
## Result -2.51

## Task Bench note: what ΔTm did CN(C1CCc2c(c3ccccc3n2CC(=O)O)C1)S(=O)(=O)c1ccc(F)cc1 (stereo not drawn) show?
## Result -1.34

## Task Bench note: what ΔTm did Cc1cc(Cn2c(N3CC4(CNC4)C3)nc3c(N4CCN(C)CC4)cc(Cl)cc32)cc(C)c1F show?
## Result -1.49
